# Tested on: C4-2B
# ASSAY REMARKS: Tumor cell proliferation, C4-2B (crystal violet)
# Format: cell-based
# CONDITION PARAMETERS: Homo sapiens, 96 h, Prostate, 4 days, read-out: in vitro (IC50, nM), inhibition of tumor cell proliferation
# Text: All measurements were done in quadruplicates.
ASSAY METRIC: IC50
Respond with the figure and its unit, in that order.

Entry `C[C@@H]1COCCN1c1cc(-c2ccnn2C)c2ccnc(-c3ccn[nH]3)c2n1` — recorded IC50 = 50 nM

* * *

# Test system: SK-OV-3
# ASSAY REMARKS: Tumor cell proliferation, SK-OV-3 (crystal violet)
# Type: cell-based
# CONDITION PARAMETERS: Homo sapiens, 96 h; SK-OV-3, Ovarian; 4 days; read-out: in vitro (IC50, nM), inhibition of tumor cell proliferation
ASSAY METRIC: IC50 (nM)
Answers are plain numbers, in nM.

Entry `C[C@@H]1COCCN1c1cc(-c2ccnn2C)c2ccnc(-c3ccn[nH]3)c2n1` — recorded IC50 = 33

* * *

# Test system: PC-3 human prostate cancer cells
# ASSAY REMARKS: Proliferation of PC-3 cells (crystal violet)
# Format: cell-based
# CONDITION PARAMETERS: PC-3, 96 h, PC3, Prostate, 4 days, read-out: in vitro (IC50, nM), inhibition of tumor cell proliferation
ASSAY METRIC: IC50 (nM)
One number for each entry, in nM.

Entry `C[C@@H]1COCCN1c1cc(-c2ccnn2C)c2ccnc(-c3ccn[nH]3)c2n1` — recorded IC50 = 490

* * *

# Test system: DLD-1 BRCA2 (−/−)
# ASSAY REMARKS: Isogenic tumor cell line proliferation, DLD-1 BRCA2 (−/−)
# Format: cell-based
# CONDITION PARAMETERS: Homo sapiens, 168 h, BRCA2 deficiency, 7 days, CTG, read-out: in vitro (IC50, nM), inhibition of isogenic tumor cell line proliferation
ASSAY METRIC: IC50 (nM)
Numbers only, in nM.

Entry `C[C@@H]1COCCN1c1cc(-c2ccnn2C)c2ccnc(-c3ccn[nH]3)c2n1` — recorded IC50 = 27

* * *

# Test system: TMD-8
# ASSAY REMARKS: Tumor cell proliferation, TMD-8
# Format: cell-based
# CONDITION PARAMETERS: Homo sapiens, TMD8, 96 h; TMD-8, Lymphoma, B cell; 4 days; read-out: in vitro (IC50, nM), inhibition of tumor cell proliferation
ASSAY METRIC: IC50 (nM)
One number for each entry, in nM.

The recorded IC50 with TMD-8 for `C[C@@H]1COCCN1c1cc(-c2ccnn2C)c2ccnc(-c3ccn[nH]3)c2n1` was 179

Cited source: patent US11976334B2
